Some compounds, each annotated with its measured IC50.
molecular target: MCT4 (Homo sapiens (Human)); assay: Assay 3: MCT4-mediated lactate transport in MDA-MB-231 breast cancer cells; format: cell-based; settings: MDA-MB-231 cells
Sequence (O15427 whole entry, looked up): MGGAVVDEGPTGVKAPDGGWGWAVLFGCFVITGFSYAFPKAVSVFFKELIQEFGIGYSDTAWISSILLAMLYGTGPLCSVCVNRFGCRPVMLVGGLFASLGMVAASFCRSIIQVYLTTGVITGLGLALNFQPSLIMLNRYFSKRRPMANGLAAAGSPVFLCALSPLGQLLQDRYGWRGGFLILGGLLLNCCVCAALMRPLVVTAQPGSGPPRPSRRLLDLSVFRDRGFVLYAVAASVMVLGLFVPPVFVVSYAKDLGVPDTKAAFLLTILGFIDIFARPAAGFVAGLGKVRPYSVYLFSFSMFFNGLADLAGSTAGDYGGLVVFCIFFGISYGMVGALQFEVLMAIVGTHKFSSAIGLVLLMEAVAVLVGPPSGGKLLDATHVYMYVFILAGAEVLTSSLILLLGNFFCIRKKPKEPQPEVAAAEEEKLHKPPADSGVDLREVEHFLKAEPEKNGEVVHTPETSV
Sequence (P35613 whole entry partner, looked up): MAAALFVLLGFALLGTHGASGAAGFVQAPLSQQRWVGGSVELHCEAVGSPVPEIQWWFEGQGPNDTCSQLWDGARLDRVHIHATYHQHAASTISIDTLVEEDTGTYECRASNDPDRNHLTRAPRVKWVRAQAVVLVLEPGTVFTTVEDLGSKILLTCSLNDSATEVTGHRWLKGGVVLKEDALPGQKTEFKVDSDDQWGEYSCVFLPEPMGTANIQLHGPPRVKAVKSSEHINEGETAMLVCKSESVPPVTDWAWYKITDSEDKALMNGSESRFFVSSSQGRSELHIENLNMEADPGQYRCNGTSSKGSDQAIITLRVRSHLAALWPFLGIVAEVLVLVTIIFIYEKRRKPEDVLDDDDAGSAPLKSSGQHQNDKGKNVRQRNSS

Structure | IC50
CC(C)(OCc1cc(-c2cc(OC3CC3)cs2)n(Cc2ccccc2Cl)n1)C(=O)O | 98 nM

Please look at the following compound next.
Q: Provide the documented IC50 with MCT4 (Homo sapiens (Human)) as the system for CCCn1ncc2ccc(-c3cc(COC(C)(C)C(=O)O)nn3-c3ccccc3N3CCCC3)cc21
Ans: 1.3 nM

---

assay: Metabolic stability in rat liver microsomes (in vitro t1/2); type: in vitro ADME; conditions: rat liver microsomes 0.5 mg/mL, 2 μM compound, % remaining at 60 min
Measured metric: Rat microsome % 60 min (%)
Expressed in %, but write only the number.

Structure | Readout number
CC(C)(C)COc1cccc(-c2cc(COC(C)(C)C(=O)O)nn2-c2ccccc2Cl)c1 | 90
Cn1ncc2cccc(-n3nc(COC(C)(C)C(=O)O)cc3-c3cccc(OCC(C)(C)C)c3)c21 | 72
CC(C)Oc1ncc(-c2cc(COC(C)(C)C(=O)O)nn2Cc2ccccc2Cl)s1 | 91

Q: Need Rat microsome % 60 min, item CC(C)(OCc1cc(-c2cccc(OC3CC3)c2)n(-c2ccc(F)cc2N2CCC2)n1)C(=O)O
Ans: 71

Q: Try this compound too: CCn1ncc2ccc(-c3cc(COC(C)(C)C(=O)O)nn3Cc3ccccc3Cl)cc21
Ans: 98

Q: Same again, this time with CC[C@@](C)(OCc1cc(-c2cccc(OC)c2)n(Cc2ccccc2Cl)n1)C(=O)O
Ans: 61

Q: Try this compound next: COc1cccc(-c2cc(COC(C)(C)C(=O)O)nn2Cc2ccccc2OC(C)C)c1
Ans: 48

Q: And for CC(C)(OCc1cc(-c2cccc(OC3CC3)c2)n(-c2ccccc2N2CCCC2)n1)C(=O)O ?
Ans: 33

Q: Now the same for Cn1ncc2ccc(-c3cc(COC(C)(C)C(=O)O)nn3Cc3ccccc3Cl)cc21
Ans: 88

Q: Similarly, Cc1ccccc1-n1nc(COC(C)(C)C(=O)O)cc1-c1cccc(OC2CC2)c1 ?
Ans: 87
